- experimentDescription: self-splicing fitness, log relative to wild type (ln ratio); higher = more splicing; Tetrahymena group I intron in knt gene, E. coli kanamycin selection, DiMSum; sequences stand for … in CUCUCU…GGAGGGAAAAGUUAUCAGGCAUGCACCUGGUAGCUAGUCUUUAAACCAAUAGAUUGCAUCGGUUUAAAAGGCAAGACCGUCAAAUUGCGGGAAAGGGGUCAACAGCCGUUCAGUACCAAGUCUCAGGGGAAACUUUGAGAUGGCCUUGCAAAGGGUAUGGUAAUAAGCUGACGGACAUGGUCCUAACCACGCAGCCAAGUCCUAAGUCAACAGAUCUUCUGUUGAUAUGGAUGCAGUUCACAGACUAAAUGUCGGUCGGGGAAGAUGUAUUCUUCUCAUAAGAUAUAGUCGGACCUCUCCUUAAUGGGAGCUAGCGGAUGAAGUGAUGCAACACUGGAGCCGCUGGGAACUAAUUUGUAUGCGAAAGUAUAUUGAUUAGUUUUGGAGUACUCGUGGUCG;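 note: selection with 25 µg/mL kanamycin versus none on LB agar overnight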
- testConditions: 37 °C
reportedProperty: self-splicing fitness (ln)
One number for each entry.

Previously resolved entries follow.
orderedResidues: GCUAAGCAAUAUUACGCACC
self-splicing fitness (ln): 0.0219
--
orderedResidues: GGUAAGCAAUAUUACGGGCG
self-splicing fitness (ln): -0.279
--
orderedResidues: UGGCAGCAAUAUUACGUUGU
self-splicing fitness (ln): -3.17
--
orderedResidues: CGUCAGCAAUAUUACGCUGC
self-splicing fitness (ln): -2.22
--
orderedResidues: CGCCAGCAAUAUUACGACCG
self-splicing fitness (ln): -0.103
--
orderedResidues: AGGGAGCAAUAUUACGAUCA
self-splicing fitness (ln): -1.5

State the recorded self-splicing fitness (ln) for every item in the following list.
1. CUUUAGCAAUAUUACGCCUC
2. UAACAGCAAUAUUACGCUAG
3. GUGGAGCAAUAUUACGCACA
4. GAAGAGCAAUAUUACGCUAU
5. UCCUAGCAAUAUUACGACGU
6. AUUUAGCAAUAUUACGCAAA
7. GGUCAGCAAUAUUACGCGUC

Output:
[-1.99, -0.992, -0.814, -2.79, -0.499, -1.82, 0.149]

State the recorded self-splicing fitness (ln) for every item in the following list.
1. CCCUAGCAAUAUUACGUCUA
2. UUCGAGCAAUAUUACGGCCU
3. UUGUAGCAAUAUUACGCCAA

Output:
1: -2.12; 2: -2.84; 3: -0.297

Data origin: the supplement of paper PMC7877785
